Source listed as BindingDB's records for PubMed 34146913.

test description: Inhibition of DC-SIGN extracellular domain (unknown origin) expressed in Escherichia coli DE3(BL21) incubated for 1 hrs in presence of Man-Fl-BSA by high-throughput fluorescence-based assay
Criterion: IC50 strictly under 4 µM. Met: rule met. Not met: rule not met.

{"molecule": "O=C1Nc2cc(C(=O)N3CCN(c4ccccc4)CC3)ccc2NC1CSCc1c(F)cccc1Cl (configuration not stated)", "category label": "rule not met"}

For COC(=O)c1ccc(-c2ccc(/C=C3\C(=O)N(c4ccc(S(N)(=O)=O)cc4)N=C3C(F)(F)F)o2)cc1 , is the recorded IC50 below the cut-off of 4 µM? rule not met

For NOC(=O)c1ccc(CCCC2Nc3ccc(C(=O)N4CCN(c5ncccn5)CC4)cc3NC2=O)cc1 (configuration not stated) , is the recorded IC50 below the cut-off of 4 µM? rule met

For CN1CCN(c2ccc(/C=C3\Sc4ccccc4C3=O)cc2[N+](=O)[O-])CC1 , is the recorded IC50 below the cut-off of 4 µM? rule not met

For COc1ccccc1N1CCN(C(=O)c2ccc3c(c2)NC(=O)C(CCCc2ccccc2C)N3)CC1 (configuration not stated) , is the recorded IC50 below the cut-off of 4 µM? rule not met

For CCC(=O)Nc1nc(C)c(-c2csc(Nc3ccc(N(C)C)cc3)n2)s1 , is the recorded IC50 below the cut-off of 4 µM? rule met

For Cc1ccc(N(C)S(=O)(=O)c2ccc3[nH]cc(C(=O)N4CCN(c5ccccc5)CC4)c(=O)c3c2)cc1C , is the recorded IC50 below the cut-off of 4 µM? rule not met

* * *

test description: Inhibition of DC-SIGN extracellular domain (unknown origin) by SPR analysis
# pKd values compiled below
Please report pKd as the negative decimal logarithm of the molar concentration, giving only the number.

{"smiles structure": "N=c1c(C(=O)NCCc2cn3c(n2)SCC3)cnc2sccn12", "measurement label": "pKd", "measured result": 3.40}

We next turn to a different compound, shown below.
pKd recorded for this compound, O=C(NCCc1c[nH]c2ccccc12)c1c(O)nc2sccn2c1=O , is 3.74
